biological target: GST-fused human V158 FcγRIIIa (extracellular region) (human) (UniProt P08637); assay: SPR, GST-FcγRIIIa V158 on chip
Sequence (P08637 17-208 F176V): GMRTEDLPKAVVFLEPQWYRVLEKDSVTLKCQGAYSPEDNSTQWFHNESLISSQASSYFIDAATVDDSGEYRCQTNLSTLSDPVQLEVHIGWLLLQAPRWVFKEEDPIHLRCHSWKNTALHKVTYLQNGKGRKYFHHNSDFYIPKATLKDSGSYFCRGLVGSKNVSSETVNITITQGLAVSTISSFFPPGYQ
ASSAY ENDPOINT: pKd
Scale explanation: pKd corresponds to minus log10 of a concentration expressed in moles per litre.

[
  {
    "BINDER": "AC10 H1L3 (H1 AC10 VH, L3 AC10 VL) (antibody, from a related filing, IgG1, V domains shown) VH: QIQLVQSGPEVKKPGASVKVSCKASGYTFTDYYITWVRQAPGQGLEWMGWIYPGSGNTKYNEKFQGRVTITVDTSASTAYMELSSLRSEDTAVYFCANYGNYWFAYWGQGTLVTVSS VL: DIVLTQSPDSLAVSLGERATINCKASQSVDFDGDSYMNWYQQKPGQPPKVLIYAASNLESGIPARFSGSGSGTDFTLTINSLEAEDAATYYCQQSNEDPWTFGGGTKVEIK",
    "pKd": 7.95
  }
]

# ---- query binder ----
Note to self: pKd recorded for AC10 H2L3 (H2 AC10 VH, L3 AC10 VL) (antibody, from a related filing, IgG1, V domains shown) VH: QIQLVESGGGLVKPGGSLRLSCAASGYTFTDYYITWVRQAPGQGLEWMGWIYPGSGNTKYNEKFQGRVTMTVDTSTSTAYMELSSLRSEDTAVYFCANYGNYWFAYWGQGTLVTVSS VL: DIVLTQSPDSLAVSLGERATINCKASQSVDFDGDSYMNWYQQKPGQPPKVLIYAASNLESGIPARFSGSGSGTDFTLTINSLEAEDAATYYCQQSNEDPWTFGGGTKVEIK was 8.45
